# Lookup of reported abundance fitness keyed by entry
B1: REST corepressor 3, residues 87 to 134; numbered along this chain, Q9P2K3 (parent)
chain: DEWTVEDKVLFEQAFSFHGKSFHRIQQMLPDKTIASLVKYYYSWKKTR

- Variants of: B1
- Protocol details: abundance fitness (aPCA) (normalised: wild type 0, dead -1); higher = more abundant; growth selection in yeast, the domain comes from the species named
- Experimental conditions: Homo sapiens
The response must contain the number and no unit.

Prompt line: Can you share its abundance fitness? I mean this variant: F22A
Response line: -0.692

Prompt line: What measured abundance fitness goes with T33R ?
Response line: -0.688

Prompt line: Returns the measured abundance fitness for the input variant. Input: M28K
Response line: -0.686
